Assay: Plasma protein binding, rapid equilibrium dialysis
Format: in vitro ADME
Details: rat, 0.5–10 μg/mL, RED, 37 °C, read-out: unbound fraction (fu) in rat plasma
measurement-name: fraction unbound at 4 h

a: COc1cc(OC2OC(C(=O)O)C(O)C(O)C2O)cc2oc(=O)c(N3CCN(C)CC3)c(C)c12 (centres unmarked) [IMM-H004G]
b: COc1cc(O)cc2oc(=O)c(N3CCN(C)CC3)c(C)c12 [IMM-H004]
Prompt: Form: Entry with minimum fraction unbound at 4 h (choose one): a / b Indicate which entry you chose by stating its label.
Response: b

----------
Test: Pharmacokinetics in rats with cerebral microdialysis
Assay type: in vivo
Details: brain (cerebral cortex microdialysate) and plasma; after iv IMM-H004 citrate 10 mg/kg, rat; read-out: Kp (AUCbrain/AUCplasma)
measurement-name: Kp

a: COc1cc(OC2OC(C(=O)O)C(O)C(O)C2O)cc2oc(=O)c(N3CCN(C)CC3)c(C)c12 (centres unmarked) [IMM-H004G]
b: COc1cc(O)cc2oc(=O)c(N3CCN(C)CC3)c(C)c12
Prompt: Determine, for a and b , which has the greater value of Kp. Please respond with the label that marks your chosen entry.
Response: b

The origin of these recorded values is paper PMC10975012.
